- Test system: Staphylococcus simulans
- measurement.protocol: Antimicrobial activity against methicillin-resistant coagulase-negative Staphylococcus simulans after 24 hrs by broth microdilution method
- Format: functional
measurement.name: log10 MIC90 (log10 of the value in µg/mL)
Scale: log10; quantity: MIC90; unit before log: µg/mL

Test item CN[C@H](CC(C)C)C(=O)N[C@H]1C(=O)N[C@@H](CC(N)=O)C(=O)N[C@H]2C(=O)N[C@H]3C(=O)N[C@H](C(=O)N[C@H](C(=O)O)c4cc(O)cc(O)c4-c4cc3ccc4O)[C@H](O)c3ccc(c(Cl)c3)Oc3cc2cc(c3O[C@@H]2O[C@H](CO)[C@@H](O)[C@H](O)[C@H]2O[C@H]2C[C@](C)(N)[C@H](O)[C@H](C)O2)Oc2ccc(cc2Cl)[C@H]1O ; Staphylococcus simulans; reported log10 MIC90 was 0.30

Summary: Cc1onc(-c2ccccc2)c1C(=O)N[C@@H]1C(=O)N2[C@@H]1SC(C)(C)[C@@H]2C(=O)O , Staphylococcus simulans, log10 MIC90 = 1.81

Param item: COc1cc(O)c(C(=O)[C@@H]2[C@H](CC=C(C)C)C(C)=CC[C@H]2c2ccccc2)c(O)c1 ; param system: Staphylococcus simulans; output log10 MIC90: 0.00

Further cases:
For the compound Cc1ccc(C(C)C)c(O)c1 , the measured log10 MIC90 on Staphylococcus simulans was 2.11

log10 MIC90 of CC[C@H]1OC(=O)[C@H](C)[C@@H](O[C@H]2C[C@@](C)(OC)[C@@H](O)[C@H](C)O2)[C@H](C)[C@@H](O[C@@H]2O[C@H](C)C[C@H](N(C)C)[C@H]2O)[C@](C)(O)C[C@@H](C)C(=O)[C@H](C)[C@@H](O)[C@]1(C)O , assay on Staphylococcus simulans, is 1.51

###

Activity by entry:
- Test system: Staphylococcus simulans
- measurement.protocol: Antimicrobial activity against methicillin-susceptible coagulase-negative Staphylococcus simulans assessed as susceptible isolates after 24 hrs by broth microdilution method
- Assay type: functional
Give the value, in units of %, as a plain number.

Recorded result, C[C@H]1COc2c(N3CCN(C)CC3)c(F)cc3c(=O)c(C(=O)O)cn1c23.C[C@H]1COc2c(N3CCN(C)CC3)c(F)cc3c(=O)c(C(=O)O)cn1c23.O [LEVOFLOXACIN] , Activity: 96

Let us move to another entry and its Activity.
GET /value?item= CN[C@H](CC(C)C)C(=O)N[C@H]1C(=O)N[C@@H](CC(N)=O)C(=O)N[C@H]2C(=O)N[C@H]3C(=O)N[C@H](C(=O)N[C@H](C(=O)O)c4cc(O)cc(O)c4-c4cc3ccc4O)[C@H](O)c3ccc(c(Cl)c3)Oc3cc2cc(c3O[C@@H]2O[C@H](CO)[C@@H](O)[C@H](O)[C@H]2O[C@H]2C[C@](C)(N)[C@H](O)[C@H](C)O2)Oc2ccc(cc2Cl)[C@H]1O [VANCOMYCIN] &field=Activity returns 100

###

- System: Staphylococcus simulans
- measurement.protocol: Antimicrobial activity against methicillin-susceptible coagulase-negative Staphylococcus simulans assessed as susceptible isolates after 24 hrs by broth microdilution method
- Format: functional
Let's look at some compounds and their measured Activity.
Number only, in %; omit the unit.

The examples below pair each entry with its known result.
Activity in this record for Cc1onc(-c2ccccc2)c1C(=O)N[C@@H]1C(=O)N2[C@@H]1SC(C)(C)[C@@H]2C(=O)O : 96

Activity for CC1(C)S[C@@H]2[C@H](NC(=O)[C@H](N)c3ccccc3)C(=O)N2[C@H]1C(=O)O is 0

Input CC(=O)NC[C@H]1CN(c2ccc(N3CCOCC3)c(F)c2)C(=O)O1 . Output Activity: 96

Record summary for CC[C@H]1OC(=O)[C@H](C)[C@@H](O[C@H]2C[C@@](C)(OC)[C@@H](O)[C@H](C)O2)[C@H](C)[C@@H](O[C@@H]2O[C@H](C)C[C@H](N(C)C)[C@H]2O)[C@](C)(O)C[C@@H](C)C(=O)[C@H](C)[C@@H](O)[C@]1(C)O : reported Activity = 50

Here is another compound to look at.
Just so you know, measured Activity for CN(C)[C@@H]1C(O)=C(C(N)=O)C(=O)[C@@]2(O)C(O)=C3C(=O)c4c(O)cccc4[C@@](C)(O)[C@H]3C[C@@H]12 came out at 69

###

- System: Staphylococcus aureus
- measurement.protocol: Antimicrobial activity against methicillin-susceptible Staphylococcus aureus assessed as resistant isolates after 24 hrs by broth microdilution method
- Assay type: functional
Cut-off 10% on Activity, inclusive. At or above means true; below means false.

Record excerpt, results attached:
Is reported Activity greater than or equal to 10% here: CC1(C)S[C@@H]2[C@H](NC(=O)[C@H](N)c3ccccc3)C(=O)N2[C@H]1C(=O)O true

Is reported Activity greater than or equal to 10% here: C[C@H]1COc2c(N3CCN(C)CC3)c(F)cc3c(=O)c(C(=O)O)cn1c23.C[C@H]1COc2c(N3CCN(C)CC3)c(F)cc3c(=O)c(C(=O)O)cn1c23.O true

hey, is Activity for this one >= 10%? Cc1onc(-c2ccccc2)c1C(=O)N[C@@H]1C(=O)N2[C@@H]1SC(C)(C)[C@@H]2C(=O)O true

Given the entry CN(C)[C@@H]1C(O)=C(C(N)=O)C(=O)[C@@]2(O)C(O)=C3C(=O)c4c(O)cccc4[C@@](C)(O)[C@H]3C[C@@H]12 , answer whether its Activity meets or surpasses 10%. true

Decide: is the reported value of Activity for CN[C@H](CC(C)C)C(=O)N[C@H]1C(=O)N[C@@H](CC(N)=O)C(=O)N[C@H]2C(=O)N[C@H]3C(=O)N[C@H](C(=O)N[C@H](C(=O)O)c4cc(O)cc(O)c4-c4cc3ccc4O)[C@H](O)c3ccc(c(Cl)c3)Oc3cc2cc(c3O[C@@H]2O[C@H](CO)[C@@H](O)[C@H](O)[C@H]2O[C@H]2C[C@](C)(N)[C@H](O)[C@H](C)O2)Oc2ccc(cc2Cl)[C@H]1O equal to or greater than 10%? false

Moving on to the next compound.
Hi, just wondering whether CC[C@H]1OC(=O)[C@H](C)[C@@H](O[C@H]2C[C@@](C)(OC)[C@@H](O)[C@H](C)O2)[C@H](C)[C@@H](O[C@@H]2O[C@H](C)C[C@H](N(C)C)[C@H]2O)[C@](C)(O)C[C@@H](C)C(=O)[C@H](C)[C@@H](O)[C@]1(C)O shows Activity of 10% or higher. true

###

- Test system: Staphylococcus simulans
- measurement.protocol: Antimicrobial activity against methicillin-susceptible coagulase-negative Staphylococcus simulans after 24 hrs by broth microdilution method
- Type: functional
Listing: MIC50 of selected compounds

compound Cc1ccc(C(C)C)c(O)c1 [THYMOL] , MIC50 observed: 64 µg/mL

Reported MIC50 for COc1cc(O)c(C(=O)[C@@H]2[C@H](CC=C(C)C)C(C)=CC[C@H]2c2ccccc2)c(O)c1 [PANDURATIN A] was 0.5 µg/mL

Recorded MIC50 (compound CC(=O)NC[C@H]1CN(c2ccc(N3CCOCC3)c(F)c2)C(=O)O1 [LINEZOLID] ): 0.25 µg/mL

Next compound, MIC50 to be filled in.
Given item CC[C@H]1OC(=O)[C@H](C)[C@@H](O[C@H]2C[C@@](C)(OC)[C@@H](O)[C@H](C)O2)[C@H](C)[C@@H](O[C@@H]2O[C@H](C)C[C@H](N(C)C)[C@H]2O)[C@](C)(O)C[C@@H](C)C(=O)[C@H](C)[C@@H](O)[C@]1(C)O [ERYTHROMYCIN] , the value recorded as its MIC50 is 0.5 µg/mL

###

- Tested on: Mammaliicoccus sciuri
- measurement.protocol: Bactericidal activity against methicillin-resistant coagulase-negative Staphylococcus sciuri after 24 hrs by plate counting method
- Assay type: functional
measurement.name: MBC50 (µg/mL)
Expressed in µg/mL, but write only the number.

Here's what some known entries look like.
Value of MBC50 reported for the compound CN(C)[C@@H]1C(O)=C(C(N)=O)C(=O)[C@@]2(O)C(O)=C3C(=O)c4c(O)cccc4[C@@](C)(O)[C@H]3C[C@@H]12 is 4

Sure, the documented MBC50 for CN[C@H](CC(C)C)C(=O)N[C@H]1C(=O)N[C@@H](CC(N)=O)C(=O)N[C@H]2C(=O)N[C@H]3C(=O)N[C@H](C(=O)N[C@H](C(=O)O)c4cc(O)cc(O)c4-c4cc3ccc4O)[C@H](O)c3ccc(c(Cl)c3)Oc3cc2cc(c3O[C@@H]2O[C@H](CO)[C@@H](O)[C@H](O)[C@H]2O[C@H]2C[C@](C)(N)[C@H](O)[C@H](C)O2)Oc2ccc(cc2Cl)[C@H]1O is 2

Recorded result, C[C@H]1COc2c(N3CCN(C)CC3)c(F)cc3c(=O)c(C(=O)O)cn1c23.C[C@H]1COc2c(N3CCN(C)CC3)c(F)cc3c(=O)c(C(=O)O)cn1c23.O , MBC50: 4

// MBC50 value for CC[C@H]1OC(=O)[C@H](C)[C@@H](O[C@H]2C[C@@](C)(OC)[C@@H](O)[C@H](C)O2)[C@H](C)[C@@H](O[C@@H]2O[C@H](C)C[C@H](N(C)C)[C@H]2O)[C@](C)(O)C[C@@H](C)C(=O)[C@H](C)[C@@H](O)[C@]1(C)O : 32

Value of MBC50 reported for the compound CC1(C)S[C@@H]2[C@H](NC(=O)[C@H](N)c3ccccc3)C(=O)N2[C@H]1C(=O)O is 32

// next item, MBC50 requested
Value of measured MBC50 for the entry COc1cc(O)c(C(=O)[C@@H]2[C@H](CC=C(C)C)C(C)=CC[C@H]2c2ccccc2)c(O)c1 : 2
